tested on: rabbit vWF A1 domain (SEQ ID NO 6); assay: 3-point dot blot screen, rabbit vWF A1 domain; type: binding; conditions: 3-point dot blot screen, 20 nM rabbit vWF A1 domain; ratio of fraction of aptamer bound with target protein to fraction bound without protein
Sequence (as listed by the source): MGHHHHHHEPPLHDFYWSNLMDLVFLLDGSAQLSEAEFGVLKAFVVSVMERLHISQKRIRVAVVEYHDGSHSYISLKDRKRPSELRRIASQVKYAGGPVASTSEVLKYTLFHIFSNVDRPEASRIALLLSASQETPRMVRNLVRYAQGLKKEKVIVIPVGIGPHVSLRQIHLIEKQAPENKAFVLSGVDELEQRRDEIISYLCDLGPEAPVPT

- MOLECULE: "AMX238.H9: DNA SELEX 2 aptamer clone (nucleic acid, DNA, backbone not given here, DNA SELEX 2 aptamer clone) DNA: CTACCTACGATCTGACTAGCTTGTCGCACTTTTGGTTGGTCTGGTTGGTTTTAAGTGCGCTTACTCTCATGTAGTTCC"
  Screen Rabbit/No Protein: 1.32
- MOLECULE: "AMX238.E7: DNA SELEX 2 aptamer clone (nucleic acid, DNA, backbone not given here, DNA SELEX 2 aptamer clone) DNA: CTACCTACGATCTGACTAGCGTGCAGTGCCTATTTTAGGCCGTGCGGTGCCTCCGTCACGCTTACTCTCATGTAGTTCC"
  Screen Rabbit/No Protein: 2.83
- MOLECULE: "AMX236.A11: DNA SELEX 2 aptamer clone (nucleic acid, DNA, backbone not given here, DNA SELEX 2 aptamer clone) CTACCTACGATCTGACTAGCTTGGTAGCGACTCTGTGGAGCTGCGGTCTGGCCGACGTCAGCTTACTCTCATGTAGTTCC"
  Screen Rabbit/No Protein: 2.02
- MOLECULE: "AMX237.H10: DNA SELEX 2 aptamer clone (nucleic acid, DNA, backbone not given here, DNA SELEX 2 aptamer clone) DNA: CTACCTACGATCTGACTAGCTTGGTAGCGACTCAGAGGAGCTGCGGTTTGGTCGACGTCAGCTTACTCTCATGTAGTTCC"
  Screen Rabbit/No Protein: 1.94
